The reported numbers originate from patent US20250027068.

subject of test: pooled human IgG (human IgG1, 2, 3 and 4)
experimental endpoint: Enzyme Activity Endpoint Assay (purified): IgG (ng/µL)

protein: PRT-436 (protein) MSQTEDSESLQRLRDIEDFQAEKKDQNVVYTKWLDGVDVKDHDFRKIVDGNIAYYATPLLNGRGFYDINKDFNRDSDKCAAAVAANMFHYWLDRNRDNVDRFLRQNPEKHGIIELPDGQLKLSDFLNTYESDDGYRDKSKLFDFISNNFNGPVWTDKLLDNYINGYAYNYKYGRTIEDPTKNTSKINFFKEVFNEKILTNNHSIRNQNEFSVLLSEALYTGKAIGLSYGPAGLRHSLGHIISVWGADLDADGNVVAIYVTDSDDKKLTIGDERVGLKRYKISTDDEGRLRLTAYEETHNTGGQIRGLWTLDTGKQAWADYFDKTEQTGTDQAEQ
observed result: 0
--
protein: PRT-663 (protein) MQITSVWTKGVTPPTPEQFRYNNEDVIHAPYLAHQGWYDITKTFDGKDNLLCGAATAGNMLHWWFDQNKTEIEAYLSKHPEKQKIIFNNQELFDLKEAINTKDSQTNSQLFNYFRDKAFPNLSARQLGVMPDLVLDMFINGYYLNVFKTQSTDVNRPYQDKDKRGGIFDAVFTRGDQTKLLTARHDLKNKGLNEISTLIKQELTEGKALALSHTYANVSISHVINLWGADFNAEGNLEAIYVTDSDANASIGMKKYFVGINASGHVAISAKKIEGENIGAQVLGLFTLSTGKDIWQKLSLEHHHHHH
observed result: 0
--
protein: PRT-441 (protein) MSQTEDSESLQRLRDIEDFQAEKKKQNVVYTKWLDGVDVKDHDFRKIVDGNIAYYATPLLNGRGFYDINKDFNRDSDKCAAAVAANMFHYWLDRNRDNVDRFLRQNPEKHGIIELPDGQLKLSDFLNTYESDDGYRDKSKLFDFISNNFNGPVWTDKLLDNYINGYAYNYKYGRTIEDPTKNTSKINFFKEVFNEKILTNNHSIRNQNEFSVLLSEALYTGKAIGLSYGPAGTRHSLGHIISVWGADLDADGNVVAIYVTDSDDKKLTIGDERVGLKRYKISTDDEGRLRLTAYEETHNTGGQIRGLWTLDTGKQAWADYFDKTEQTGTDQAEQ
observed result: 0
--
protein: PRT-643 (protein) MQITSVWTKGVTPLTPEQFRYNNEDVIHAPYLAHQGWYDITKAFDGKDNLLCGAATAGNMLHWWFDQNKTEIEAYLSKHPEKQKIIFNNQELFDLKAAIDTKDSQTNSQLFNYFRDKAFPNLSARQLGVMPDLVLDMFINGYYLNVFKTQSTDVNRPYQDKDKRGGIFDAVFTRGDQTTLLTARHDLKNKGLNDISTIIKQELTEGRALALSHTYANVSISHVINLWGADFNAEGNLEAIYVTDSDANASIGMKKYKVGYNKDGRVAISAYKIEGENIGAQVLGLFTLSSGKDIWQKLSLEHHHHHH
observed result: 33
